Record form. Attribute: TGI. Fill in for each entry.
# Tested on: SN12C renal
# protocol: NCI tumour cell line growth inhibition, 48 h

Sample records with TGI:
**Q:** TGI lookup needed for O=C(NCCCCCCNC(=O)NC1OCC(O)C(O)C1O)NC1OCC(O)C(O)C1O (stereo not given) , thanks.
**A:** > 100 µM

**Q:** Param item = `c1ccc(C2=NN[C@H](c3cn(-c4ccccc4)nc3-c3ccccc3)C2)cc1` ; retrieve measured TGI.
**A:** > 100 µM

**Q:** For the molecule shown here, `NN/C(=N\S(=O)(=O)c1cccc2nsnc12)Nc1ccc(Cl)cc1` , give the reported TGI.
**A:** > 100 µM

**Q:** Entry `COCN1C(=O)[C@@H]2CCCN2C(=O)c2cc(Cl)ccc21` has what TGI?
**A:** > 100 µM

**Q:** Consider the molecule shown here: `COc1ccc(NC(=O)CC(=O)n2nc(-c3ccccc3)c(N=Nc3ccccc3C)c2-c2ccccc2)cc1` What is its recorded TGI?
**A:** > 88.5 µM

**Q:** Item `C(=C\c1nc2ccccc2s1)/c1ccc(N2CCOCC2)s1` has what recorded TGI?
**A:** > 100 µM

**Q:** Which TGI is listed for Cc1cn(C2CC(N=[N+]=[N-])C(C(=O)O)O2)c(=O)[nH]c1=O (stereo not given) ?
**A:** > 100 µM

**Q:** Data request, read-out TGI, for CCCC(=O)Nc1ncnc2c1ncn2C1OC2COP(=O)(O)OC2C1OC(=O)CCC (stereo not given)
**A:** > 1000 µM

**Q:** Name the recorded TGI for CCC[CH2][Ge]([CH2]CCC)([CH2]CCC)[O]C(=O)C(OC(C)=O)c1ccccc1 (stereo not given) .
**A:** 24.9 µM

Further cases:
**Q:** Suppose we examine the molecule CC1OC(n2cc(I)c(=O)[nH]c2=O)C=CC1=O (stereo not given) ; what TGI value has been reported?
**A:** 33.3 µM

###

# Test system: SK-OV-3 ovarian
# protocol: NCI tumour cell line growth inhibition, 48 h
test-readout: GI50

Take a look at these entries with their results.
**Q:** Query: GI50; subject: `C(=C\c1nc2ccccc2s1)/c1ccc(N2CCOCC2)s1`
**A:** 90.7 µM

**Q:** GI50 for `O=C(Nc1cccc(-n2cc(-c3ccncc3)c(-c3ccc(O)c(Cl)c3)n2)c1)c1ccc(N2CCOCC2)c(C(F)(F)F)c1` ?
**A:** > 50 µM

**Q:** Reported GI50, compound `C[CH2][Sn]([Cl])([CH2]C)[CH2]C` : ____
**A:** 1.47 µM

**Q:** I am curious: what GI50 value has been reported for `O=C1C(Cl)=C(Nc2ccccn2)C(=O)c2ccccc21` ?
**A:** 13.9 µM

**Q:** # query: GI50 of entry `O=C(c1ccncc1)N1CCN(C2=NS(=O)(=O)c3ccccc3N2c2ccccc2)CC1`
**A:** 13.4 µM

For each of the items listed, what is its GI50?
1. CNC(=O)c1c(NC(=O)c2ccc(C(C)C)cc2)sc2c1CCC(=O)C2
2. CN1CCN(CCCN2c3ccccc3Sc3ccc(C(F)(F)F)cc32)CC1
3. COc1cc([N+](=O)[O-])c(OC)cc1-c1nc2n(c1/C(N)=N/C(=N)N)CCS2

**A:**
1. 2.47 µM
2. 1.92 µM
3. > 100 µM
